# Experiment notes: in vivo
# Condition context: male, Sprague Dawley, rat, iv, 15 mg/kg
Positions of bridges follow the written chain, without caps; N, C: chain ends. Non-standard residues stand in square brackets, D forms with d. Residues, ends and D or L forms follow the SMILES beside them. *: point of attachment. Heptanoyl(6-Me) = CC(C)CCCCC(=O)*; Dab = NCC[C@H](N)C(=O)O
Measured property: level at 0.5 h

Entry CC(C)CCCCC(=O)N[C@@H](CCN)C(=O)N[C@H](C(=O)N[C@@H](CCN)C(=O)N[C@H]1CCNC(=O)[C@H]([C@@H](C)O)NC(=O)[C@H](CCN)NC(=O)[C@H](CCN)NC(=O)[C@H](CC(C)C)NC(=O)[C@@H](CC(C)C)NC(=O)[C@H](CCN)NC1=O)[C@@H](C)O [Colistin B, colistin B] ({Heptanoyl(6-Me)}-[Dab]T[Dab][Dab][Dab][dL]L[Dab][Dab]T; lactam 4-C) — recorded level at 0.5 h = 2640 ng/mL

---

# Experiment notes: Pharmacokinetic study of colistin in rats after IV colistin sulfate, plasma LC-MS/MS, non-compartmental analysis
# Condition context: male, Sprague Dawley (MSD), rat, 15 mg/kg, SD
Positions of bridges follow the written chain, without caps; N, C: chain ends. Non-standard residues stand in square brackets, D forms with d. Residues, ends and D or L forms follow the SMILES beside them. *: point of attachment. X1 = CC[C@H](C)CCCCC(=O)*; Dab = NCC[C@H](N)C(=O)O
Measured property: clearance (L/h/kg)
Give bare numbers, in L/h/kg.

Entry CC[C@H](C)CCCCC(=O)N[C@@H](CCN)C(=O)N[C@H](C(=O)N[C@@H](CCN)C(=O)N[C@H]1CCNC(=O)[C@H]([C@@H](C)O)NC(=O)[C@H](CCN)NC(=O)[C@H](CCN)NC(=O)[C@H](CC(C)C)NC(=O)[C@@H](CC(C)C)NC(=O)[C@H](CCN)NC1=O)[C@@H](C)O [colistin] (X1-[Dab]T[Dab][Dab][Dab][dL]L[Dab][Dab]T; lactam 4-C) — recorded clearance = 1.53

---

# Experiment notes: Pharmacokinetic study of colistin in rats after IV colistin sulfate, plasma LC-MS/MS, non-compartmental analysis
# Condition context: male, Sprague Dawley, rat, 15 mg/kg
Positions of bridges follow the written chain, without caps; N, C: chain ends. Non-standard residues stand in square brackets, D forms with d. Residues, ends and D or L forms follow the SMILES beside them. *: point of attachment. X1 = CC[C@H](C)CCCCC(=O)*; Dab = NCC[C@H](N)C(=O)O
Measured property: level at 0.5 h (ng/mL)
Numbers only, in ng/mL.

Entry CC[C@H](C)CCCCC(=O)N[C@@H](CCN)C(=O)N[C@H](C(=O)N[C@@H](CCN)C(=O)N[C@H]1CCNC(=O)[C@H]([C@@H](C)O)NC(=O)[C@H](CCN)NC(=O)[C@H](CCN)NC(=O)[C@H](CC(C)C)NC(=O)[C@@H](CC(C)C)NC(=O)[C@H](CCN)NC1=O)[C@@H](C)O [Colistin A, colistin A] (X1-[Dab]T[Dab][Dab][Dab][dL]L[Dab][Dab]T; lactam 4-C) — recorded level at 0.5 h = 4110
